All figures here come from patent US11578084B2.

Could you please report measured inhibition at 3 µM for the items listed next?
Target: hERG channel (IKr) (Homo sapiens (Human))
Sequence (Q12809 whole entry): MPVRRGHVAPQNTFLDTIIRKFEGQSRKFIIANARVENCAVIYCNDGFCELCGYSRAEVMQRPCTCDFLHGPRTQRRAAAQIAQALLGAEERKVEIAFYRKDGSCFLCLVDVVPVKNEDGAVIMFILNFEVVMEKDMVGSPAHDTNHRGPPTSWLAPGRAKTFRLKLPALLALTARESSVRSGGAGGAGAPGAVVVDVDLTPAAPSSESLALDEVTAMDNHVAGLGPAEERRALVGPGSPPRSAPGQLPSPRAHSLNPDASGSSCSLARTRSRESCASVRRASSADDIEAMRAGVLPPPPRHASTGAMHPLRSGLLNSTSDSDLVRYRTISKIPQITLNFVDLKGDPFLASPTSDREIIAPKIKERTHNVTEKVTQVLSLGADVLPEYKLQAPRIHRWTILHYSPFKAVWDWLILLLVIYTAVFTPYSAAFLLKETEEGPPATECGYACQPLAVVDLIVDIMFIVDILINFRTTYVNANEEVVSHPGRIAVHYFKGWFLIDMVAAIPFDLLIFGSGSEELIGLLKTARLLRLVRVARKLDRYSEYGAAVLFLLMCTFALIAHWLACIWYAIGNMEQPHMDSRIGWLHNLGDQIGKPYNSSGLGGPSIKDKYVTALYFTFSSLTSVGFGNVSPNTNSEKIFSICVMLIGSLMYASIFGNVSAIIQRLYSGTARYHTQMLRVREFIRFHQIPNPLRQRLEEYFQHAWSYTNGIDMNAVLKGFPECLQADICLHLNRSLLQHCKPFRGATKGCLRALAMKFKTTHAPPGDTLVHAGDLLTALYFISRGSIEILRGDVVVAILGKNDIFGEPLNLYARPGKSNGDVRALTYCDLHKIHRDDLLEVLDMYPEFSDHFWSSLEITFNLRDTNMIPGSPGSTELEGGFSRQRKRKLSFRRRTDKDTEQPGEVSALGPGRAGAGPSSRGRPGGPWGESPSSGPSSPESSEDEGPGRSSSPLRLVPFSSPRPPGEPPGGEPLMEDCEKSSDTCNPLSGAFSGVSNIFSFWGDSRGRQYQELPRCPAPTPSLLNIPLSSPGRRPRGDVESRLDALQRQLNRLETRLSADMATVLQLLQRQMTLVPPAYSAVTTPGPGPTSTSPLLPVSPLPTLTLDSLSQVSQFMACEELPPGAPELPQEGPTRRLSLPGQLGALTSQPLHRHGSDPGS
Experiment: hERG test (whole cell patch clamp, IKr)
Assay type: cell-based
Settings: human, CHO cells expressing hERG channel, pH 7.4, 3 μM, tail peak current
State just the number; it will be interpreted in %.

Prompt: Any idea what inhibition at 3 µM was measured for Cc1nc(CC(=O)N[C@H]2CC[C@](F)(CCN3CCc4nc(OCCC(F)(F)F)sc4CC3)CC2)no1 ?
Response: 29

Prompt: Please look up its inhibition at 3 µM: Cn1ncc(CC(=O)N[C@H]2CC[C@H](CCN3CCc4nc(OC5CC(F)(F)C5)sc4CC3)CC2)n1
Response: 16.5

Prompt: GET /values?readout=inhibition at 3 µM&item= Cc1cnc(CC(=O)N[C@H]2CC[C@](F)(CCN3CCc4ccc(OC5CCC5)nc4CC3)CC2)o1
Response: 30.1

Prompt: Which inhibition at 3 µM value belongs to Cc1ncc(CC(=O)N[C@H]2CC[C@](F)(CCN3CCc4nc(OCC(F)F)sc4CC3)CC2)o1 ?
Response: 17.7

Prompt: I am curious: what inhibition at 3 µM value has been reported for Cn1cc2c(C(=O)NN3CCC(CCN4CCc5ccc(OCC(F)(F)F)nc5CC4)CC3)cccc2n1 ?
Response: 19.1

Prompt: Form field: reported inhibition at 3 µM of C[C@@H](Oc1nc2c(s1)CCN(CC[C@H]1CC[C@H](NC(=O)c3cccc4nn(C)cc34)CC1)CC2)C(F)(F)F
Response: 25.1

Prompt: What measured inhibition at 3 µM goes with Cc1cnc(CC(=O)N[C@H]2CC[C@H](CCN3CCc4nc(OCC(C)(F)F)sc4CC3)CC2)o1 ?
Response: 29.8

Prompt: Give its inhibition at 3 µM value. Item: CC[C@@H](C)Oc1ccc2c(n1)CCN(CC[C@H]1CC[C@H](NC(=O)c3cccc4nn(C)cc34)CC1)CC2
Response: 13.4

Prompt: Reported inhibition at 3 µM, compound Cn1c(C(=O)N[C@H]2CC[C@](F)(CCN3CCc4ccc(OCC(F)F)nc4CC3)CC2)cccc1=O : ____
Response: 8.37
